Test Details: recombinant barcode read abundance after kanamycin selection (control-corrected) (log10(CPM+1)); higher = more efficient recombination; sequences stand for … in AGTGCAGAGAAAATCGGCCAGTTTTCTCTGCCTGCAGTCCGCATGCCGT…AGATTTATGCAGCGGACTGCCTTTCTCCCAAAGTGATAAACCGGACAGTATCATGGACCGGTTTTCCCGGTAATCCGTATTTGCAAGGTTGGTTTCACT; site = the 11-nt target
We use 0.3 as the dividing line for recombinant barcode read abundance (log10): on or above the line is Met, below is Not met.

Some entries whose results are on file:
- Seq Text: "CCTTACACTTGGGTTCTAACCTGTTGCGG (site CCTGACACTCC)"
  Class: "Not met"
- Seq Text: "GCCCGATCTTGGGTTCTAACCTGTTGCCT (site GCCCCATCTAG)"
  Class: "Not met"

Asked: # bool: recombinant barcode read abundance (log10) of GACCGGGCTTGGGTTCTAACCTGTTGCCT (site GACCGTGCTAG) >= 0.3
Given back: Not met

Asked: # bool: recombinant barcode read abundance (log10) of CTCTCGCCTTGGGTTCTAACCTGTTGCCT (site CTATCGCCTAG) >= 0.3
Given back: Not met

Asked: # bool: recombinant barcode read abundance (log10) of TAGCCTACTTGGGTTCTAACCTGTTGCGA (site TAGCCTACTTC) >= 0.3
Given back: Met

Asked: # bool: recombinant barcode read abundance (log10) of CCAAGGGCTTGGGTTCTAACCTGTTGCCG (site CCAAGGGCTCT) >= 0.3
Given back: Met

###

Test Details: recombinant UMI read abundance after kanamycin selection (control-corrected) (log10(CPM+1)); higher = more efficient recombination; extreme values may be limits of the assay; sequences stand for … in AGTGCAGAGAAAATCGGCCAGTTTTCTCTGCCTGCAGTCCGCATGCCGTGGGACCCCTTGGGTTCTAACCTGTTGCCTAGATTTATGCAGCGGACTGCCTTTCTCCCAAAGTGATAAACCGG…AGGTTGGTTTCACT; site = the 11-nt donor
Below, each of the sequences is paired with its reported recombinant UMI read abundance (log10) value.
Number, no unit, nothing else.

Take a look at these entries with their results.
- Seq Text: "CGAGAACCATGGACCGGTTTTCCCGGTAATCCGTATTTGGG (site CGAGGACCTCC)"
  recombinant UMI read abundance (log10): 0.0198
- Seq Text: "GTTAGAACATGGACCGGTTTTCCCGGTAATCCGTATTTGAC (site GTTAGAACTGC)"
  recombinant UMI read abundance (log10): 0.0153
- Seq Text: "CCCGTTCCATGGACCGGTTTTCCCGGTAATCCGTATTTGCA (site CCCGCTCCTTG)"
  recombinant UMI read abundance (log10): 0
- Seq Text: "TTCCCTACATGGACCGGTTTTCCCGGTAATCCGTATTTGAG (site CTCCCTACTCT)"
  recombinant UMI read abundance (log10): 0.0509
- Seq Text: "CCCCACGCATGGACCGGTTTTCCCGGTAATCCGTATTTGTA (site CCCCACGCTTA)"
  recombinant UMI read abundance (log10): 0.81

Asked: Look up and report measured recombinant UMI read abundance (log10) for this entry: TGGTTCCCATGGACCGGTTTTCCCGGTAATCCGTATTTGTG (site GGGTTCCCTCA)
Given back: 0.0263

Asked: Look up and report measured recombinant UMI read abundance (log10) for this entry: ACAGTATCATGGACCGGTTTTCCCGGTAATCCGTATTTGAA (site ACAGTATCTTC)
Given back: 1.73

Asked: Look up and report measured recombinant UMI read abundance (log10) for this entry: CATGTAACATGGACCGGTTTTCCCGGTAATCCGTATTTGCT (site AATGTAACTAG)
Given back: 0.624

Asked: Look up and report measured recombinant UMI read abundance (log10) for this entry: ACTAGTACATGGACCGGTTTTCCCGGTAATCCGTATTTGGT (site ACTAGTCCTAC)
Given back: 0.00589

Asked: Look up and report measured recombinant UMI read abundance (log10) for this entry: GACGAACCATGGACCGGTTTTCCCGGTAATCCGTATTTGGT (site GACAAACCTAC)
Given back: 0

Asked: Look up and report measured recombinant UMI read abundance (log10) for this entry: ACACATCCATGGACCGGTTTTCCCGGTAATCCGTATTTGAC (site ACACTTCCTGT)
Given back: 0

Asked: Look up and report measured recombinant UMI read abundance (log10) for this entry: CTCTTGGCATGGACCGGTTTTCCCGGTAATCCGTATTTGGA (site CACTTGGCTTC)
Given back: 0.273

Data provenance is the supplement of paper PMC11208160.
